# protocol: Cell Viability - LYMP2-010 (AID 981);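 note: cells exposed to compound for 24 hours at 37 °C; nearly all actives have a fitted effect of over 55% in size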
# run.parameters: LYMP2-010 lymphoblastoid cell viability, qHTS; series mostly up to 92.2 µM
Inconclusive results are not listed. Calls of active or inactive are those of the source. Calls come from the whole dose curve; as a rule, active = well fitted cell-killing curve with a large enough effect; inconclusive = small, poorly fitted or top-dose-only effect; inactive = flat fitted curve, though single readings scatter.
Give one outcome, nothing more. List: active, inactive

CN(C)c1ccc(N=NS(=O)(=O)O)cc1 = inactive
COc1cc(CNC(=O)CCCC/C=C/C(C)C)ccc1O = inactive
O=C(O)c1cc(O)c(O)c(O)c1 = inactive
N=C1N=C(N)c2cc3ccccc3cc21 = active
C#C[C@]1(O)CC[C@H]2[C@@H]3CCc4cc(O)ccc4[C@H]3CC[C@@]21C = inactive
O=c1cc(-c2ccccc2)oc2ccccc12 = inactive
Nc1ccc([N+](=O)[O-])cc1O = inactive
NCCO = inactive
Nc1ccc(O)c([N+](=O)[O-])c1 = inactive
S=c1[nH]c2ccccc2s1 = inactive

Qu. // return assay outcome for "Nc1ccc(O)c(C(=O)O)c1"
Ans. inactive

Qu. Identify the outcome logged in this assay for the molecule shown: "CCCCCCCCCCCCCCCCCC(=O)O"
Ans. inactive
